Assay: TLR3 IRF3 reporter activation blockers – cell-based, poly I:C stimulus, luciferase, 10K MLSCN set, primary screen (AID 602277)
Conditions: HEK293-TLR3 RL24 IRF3 luciferase reporter, at 10 µM, active compounds read high
Items are presented alongside their recorded inhibition.
measuredQuantity: inhibition (%)

compound=CCCCCc1nnc(NC(=O)Cc2cccs2)s1 unitinfo=% valueobserved=1.2
compound=O=C(Nc1cccnc1)c1cc2c(ccc3ccccc32)o1 unitinfo=% valueobserved=-135
compound=O=C(NCCCN1CCCC1=O)C1CCN(S(=O)(=O)N2CCOCC2)CC1 unitinfo=% valueobserved=-7.16
compound="CCCOc1ccc([C@@H]2C3CN(C(=O)OCC)CC=C3C(C#N)=C(N)C2(C#N)C#N)cc1OC (stereo partly drawn)" unitinfo=% valueobserved=-2.37
compound=O=c1ccn(Cc2ccccc2Cl)cc1 unitinfo=% valueobserved=14.2
compound=Nc1c(C(=O)NCc2ccco2)nnn1Cc1ccccc1 unitinfo=% valueobserved=3.26
compound=COC(=O)c1[nH]c2ccc(C)cc2c1NC(=O)CN1CCC(C)CC1 unitinfo=% valueobserved=2.95
compound=COc1cccc(CN=CC2=C(O)CC(C)(C)CC2=O)c1OC unitinfo=% valueobserved=3.58
compound=CCn1c(SCC(=O)Nc2ccc(C(C)=O)cc2)nc2ccccc21 unitinfo=% valueobserved=-19.9
compound=Cn1c(=O)[nH]c(=O)c2c1nc(Br)n2CCCSc1nc2ccccc2o1 unitinfo=% valueobserved=9.4
compound=Cc1c(NC(=O)c2ccc(COc3ccc4ccccc4c3)o2)c(=O)n(-c2ccccc2)n1C unitinfo=% valueobserved=-61.2
compound="O=C1OC(N2CCN(c3ccccn3)CC2)c2ccccc21 (stereo not drawn)" unitinfo=% valueobserved=12
compound=CCC(=O)c1ccc(OC(=O)c2ccc(Br)o2)cc1 unitinfo=% valueobserved=9.67
compound=CC(C)N(C=O)C1(C(=O)NC2CCCCC2)CCCCC1 unitinfo=% valueobserved=13.5
compound=O=C(c1ccc(S(=O)(=O)N2CCC(c3nc4ccccc4s3)CC2)cc1)N1CCOCC1 unitinfo=% valueobserved=3.6
compound=COCC(=O)n1nc(NCc2ccc(OC)cc2)nc1NCc1ccc(OC)cc1 unitinfo=% valueobserved=8.87
compound="CCOC(=O)C1=C(N)OC2=C(C(=O)CC(C)(C)C2)C1c1ccoc1 (stereo not drawn)" unitinfo=% valueobserved=7.84
compound=COc1cc(-c2nc(S(=O)(=O)c3ccccc3)c(N3CCOCC3)o2)cc(OC)c1OC unitinfo=% valueobserved=15.3
compound=CC(=O)c1ccc(NC(=O)c2cc(CC(C)C)on2)cc1 unitinfo=% valueobserved=-78
compound=CS(=O)(=O)Nc1ccccc1C(=O)O unitinfo=% valueobserved=33
compound=Cc1ccc(C)c(N2C(=O)CN=C2Nc2ccccc2Cl)c1 unitinfo=% valueobserved=24.3
compound="COC(=O)c1ccccc1NC(=O)C1CCCCC1C(=O)O (stereo not drawn)" unitinfo=% valueobserved=11.6
compound=Cc1cccc(C)c1NC(=O)COC(=O)c1nonc1N unitinfo=% valueobserved=2

---

Biological target: Voltage-gated potassium channel subunit beta-2 (Rattus norvegicus) (UniProt P62483)
Sequence (P62483 whole entry, looked up): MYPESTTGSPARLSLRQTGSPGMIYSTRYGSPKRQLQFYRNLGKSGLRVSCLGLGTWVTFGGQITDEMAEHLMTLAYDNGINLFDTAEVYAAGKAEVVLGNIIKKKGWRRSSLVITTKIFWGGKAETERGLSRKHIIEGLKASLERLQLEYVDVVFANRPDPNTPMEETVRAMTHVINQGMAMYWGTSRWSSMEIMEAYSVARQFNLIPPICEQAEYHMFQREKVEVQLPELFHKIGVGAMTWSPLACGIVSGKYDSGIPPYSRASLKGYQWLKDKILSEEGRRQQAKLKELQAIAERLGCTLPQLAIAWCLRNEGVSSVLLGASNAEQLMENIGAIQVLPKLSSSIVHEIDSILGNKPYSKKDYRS
Test: inhibitors of rat Kvbeta2 reductase activity – biochemical, NADPH fluorescence, primary screen (AID 622);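 note: slope of raw intensity against log time taken from 70 to 1610 s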
Conditions: recombinant KvBeta, 4-cyanobenzaldehyde reduction, at 10 µM, active compounds read high
Items are presented alongside their recorded fluorescence slope.
measuredQuantity: fluorescence slope

compound=Cc1cc(C)c2c(n1)nn1c(N3CCN(c4ccccc4C)CC3)cc(C)nc21 measuredquantity="fluorescence slope" valueobserved=-0.447
compound=CC1(C)CC(=O)C(C=NCc2ccc3c(c2)OCO3)=C(O)C1 measuredquantity="fluorescence slope" valueobserved=-0.459
compound=CC(=O)c1ccc(NC(=O)c2cc(CC(C)C)on2)cc1 measuredquantity="fluorescence slope" valueobserved=-0.606
compound="CC1CN(C2CCCCC2)c2nc3c(c(=O)[nH]c(=O)n3C)n2C1 (configuration not stated)" measuredquantity="fluorescence slope" valueobserved=-0.642
compound=Cc1cc(C)cc(NC(=O)c2nnn(Cc3cc(C)ccc3C)c2N)c1 measuredquantity="fluorescence slope" valueobserved=-0.564
compound="Nc1nc2n(n1)C(c1cccc(Cl)c1)CC(c1ccc(F)cc1)N2 (configuration not stated)" measuredquantity="fluorescence slope" valueobserved=-0.42
compound="CC1CCCCC1NC(=O)Cn1ncc2ccccc21 (configuration not stated)" measuredquantity="fluorescence slope" valueobserved=-0.555
compound=N#Cc1nc(COc2ccccc2)oc1NCCN1CCOCC1 measuredquantity="fluorescence slope" valueobserved=-0.569
compound="O=S1(=O)C=CC(Nc2cccc(Cl)c2)C1 (configuration not stated)" measuredquantity="fluorescence slope" valueobserved=-0.447
compound=COc1ccc(C2(C(=O)Nc3cc(C)on3)CCOCC2)cc1 measuredquantity="fluorescence slope" valueobserved=-0.388
compound=COc1ccc(CCN(Cc2cc3cccc(C)c3[nH]c2=O)C(=O)N2CCCC2)cc1OC measuredquantity="fluorescence slope" valueobserved=-0.458
compound=CC(C)(CO)NC(=O)CCCOc1ccc(Cl)cc1Cl measuredquantity="fluorescence slope" valueobserved=-0.431
compound="Cc1cc(NC(=O)C23CCC(C)(c4nc5cc(Cl)c(Cl)cc5nc42)C3(C)C)no1 (configuration not stated)" measuredquantity="fluorescence slope" valueobserved=-0.577
compound="O=C1CC(Cc2ccccc2)C(=O)N1CCc1ccc2c(c1)OCO2 (configuration not stated)" measuredquantity="fluorescence slope" valueobserved=-0.579
compound=N#CCC(=O)Nc1ncn(Cc2ccccc2Cl)n1 measuredquantity="fluorescence slope" valueobserved=-0.456
compound=O=C(C1CCN(S(=O)(=O)Cc2ccccc2)CC1)N1CCN(c2ncccn2)CC1 measuredquantity="fluorescence slope" valueobserved=-0.431
compound="Cc1ccc(C(O)c2nc3ccccc3n2C(C)C)cc1 (configuration not stated)" measuredquantity="fluorescence slope" valueobserved=-0.418
compound=Cc1c(NS(=O)(=O)c2ccc3c(c2)c(=O)n(C)c(=O)n3C)c(=O)n(-c2ccccc2)n1C measuredquantity="fluorescence slope" valueobserved=-0.412
compound=O=C(NC1CCCCCC1)c1c(F)c(F)c(F)c(F)c1F measuredquantity="fluorescence slope" valueobserved=-0.299
compound=Nc1scc(-c2ccncc2)c1Cl measuredquantity="fluorescence slope" valueobserved=-0.386
compound=Cc1cc(C)nc(N2CCC(C(=O)Nc3ccc(Oc4ccccc4)cc3)CC2)n1 measuredquantity="fluorescence slope" valueobserved=-0.432
compound=O=S(=O)(Cc1ccc(Cl)cc1)Nc1ccc2c(c1)OCO2 measuredquantity="fluorescence slope" valueobserved=-0.454
compound=Cc1ccc(NC(=O)c2ccco2)c(NC(=O)CN2C(=O)c3ccccc3C2=O)c1 measuredquantity="fluorescence slope" valueobserved=-0.466
compound=CSc1nnc(-c2nnc(SC)n2-c2ccccc2)n1-c1ccccc1 measuredquantity="fluorescence slope" valueobserved=-0.532
compound=O=C(CSc1nnnn1C1CCCC1)Nc1cccc(NC(=O)c2ccco2)c1 measuredquantity="fluorescence slope" valueobserved=-0.329
compound="CC1(C)C2CCC1(C)C(OC(=O)CSc1nc(N)cc(=O)[nH]1)C2 (configuration not stated)" measuredquantity="fluorescence slope" valueobserved=-0.367
compound=COc1ccc(CC(=O)Nc2c3c(nn2-c2cccc(Cl)c2)CS(=O)(=O)C3)cc1 measuredquantity="fluorescence slope" valueobserved=-0.529
compound=CCOC(=O)c1nnc2cc(-c3ccc(Br)cc3)nn2c1C measuredquantity="fluorescence slope" valueobserved=-0.558
compound=COc1ccccc1N1CCN(Cc2nnnn2CCc2ccccc2)CC1 measuredquantity="fluorescence slope" valueobserved=-0.565
compound="CC1Cc2ccccc2N1C(=O)CSc1nnc2n1C(C)(C)Cc1ccccc1-2 (configuration not stated)" measuredquantity="fluorescence slope" valueobserved=-0.434
compound=Cc1cccc(-n2ncc3c(NCc4ccccn4)ncnc32)c1 measuredquantity="fluorescence slope" valueobserved=-0.592
compound=COC(=O)c1ccc2ncccc2c1 measuredquantity="fluorescence slope" valueobserved=-0.536
compound=Cc1ccc2nc(/C(C#N)=N/O)[nH]c2c1 measuredquantity="fluorescence slope" valueobserved=-0.376
compound=CCOC(=O)c1c(C)oc2ccc(OCC(N)=O)cc12 measuredquantity="fluorescence slope" valueobserved=-0.483
compound=Cc1c2c(nc3nc4ccccc4n13)CC(C)(C)CC2=O measuredquantity="fluorescence slope" valueobserved=-0.603
compound=CCOCCCN(Cc1cc2cc(C)cc(C)c2[nH]c1=O)C(=O)N(CC)CC measuredquantity="fluorescence slope" valueobserved=-0.423
compound=Cc1cc(C)n2nc(SCC(=O)N(C)Cc3ccccc3)nc2n1 measuredquantity="fluorescence slope" valueobserved=-0.435
compound="COCc1nnc(SCC(=O)NC(C)c2ccccc2)n1-c1ccccc1 (configuration not stated)" measuredquantity="fluorescence slope" valueobserved=-0.434
compound=Cc1nc(Nc2nc(=O)c3ccccc3n2C)nc2c(C)cccc12 measuredquantity="fluorescence slope" valueobserved=-0.348
compound=O=c1c2[nH]c3ccc(Cl)cc3c2ncn1Cc1ccccn1 measuredquantity="fluorescence slope" valueobserved=-0.392
compound=COc1ccc(C)cc1-n1nnnc1SC/C(O)=C(\C#N)c1nc2ccccc2[nH]1 measuredquantity="fluorescence slope" valueobserved=-0.431
compound=Cc1c(Cl)cccc1NC(=O)CCN1CCCCCC1 measuredquantity="fluorescence slope" valueobserved=-0.414
compound="O=C(NCC1CCCO1)c1cccc(N2C(=O)C3C4C=CC(C4)C3C2=O)c1 (configuration not stated)" measuredquantity="fluorescence slope" valueobserved=-0.42
compound="CC(C)COC(=O)C(C#N)c1nc2ccccc2nc1N1CCN(Cc2ccccc2)CC1 (configuration not stated)" measuredquantity="fluorescence slope" valueobserved=-0.425
compound=CCOc1ccc2nc(SCC#N)c(C#N)cc2c1 measuredquantity="fluorescence slope" valueobserved=-0.561
compound=CC(C)NC(=O)Nc1cccs1 measuredquantity="fluorescence slope" valueobserved=-0.507
compound=CCOC(=O)Cn1c(CN2CCOCC2)nc2c1c(=O)[nH]c(=O)n2C measuredquantity="fluorescence slope" valueobserved=-0.601
